test-system: CDK1/CCNB1 (Homo sapiens)
experiment-summary: CDK1 homogeneous time-resolved fluorescence (HTRF) kinase assay
Format: biochemical
experimental-parameters: >250 nM; CDK1/CCNB; read-out: CDK1/CCNB IC50 >250 nM
pIC50: −log10 of the molar value.
property-name: pIC50

Here are 3 compounds together with their reported answers.
| compound | observed |
| --- | --- |
| Cc1cnc(NS(=O)(=O)c2ccc(Nc3cc4c(-c5ccc6c(cnn6CC(O)(C(F)(F)F)C(F)(F)F)c5C)nccc4cn3)cc2)cc1N1CCOCC1 [Ex 701] | < 6.60 |
| CNS(=O)(=O)c1ccc(Nc2cc3c(-c4ccc5c(cnn5CC(O)(C(F)(F)F)C(F)(F)F)c4C)nccc3cn2)cc1 [Example 696] | < 6.60 |
| CCOC(=O)c1cn2cc(C#Cc3nccc4cnc(Nc5ccc(S(C)(=O)=O)cc5)cc34)ccc2n1 [Ex 851] | < 6.60 |

# lookup: Cc1c(-c2nccc3cnc(Nc4ccc5c(c4)CCCS5(=O)=O)cc23)ccc2c1cnn2CC(C)(C)O [Ex 914] on CDK1/CCNB1 (Homo sapiens), pIC50 = < 6.60

# lookup: Cc1c(-c2nccc3cnc(Nc4ccc5c(c4)CCS5(=O)=O)cc23)ccc2c1cnn2CC(C)(C)O [Ex 915] on CDK1/CCNB1 (Homo sapiens), pIC50 = < 6.60

# lookup: COc1ccc(NS(=O)(=O)c2ccc(Nc3cc4c(-c5ccc6c(cnn6CC(O)(C(F)(F)F)C(F)(F)F)c5C)nccc4cn3)cc2)cc1C(C)(C)O [Ex 709] on CDK1/CCNB1 (Homo sapiens), pIC50 = < 6.60

# lookup: Cc1c(-c2nccc3cnc(Nc4ccc(NS(=O)(=O)c5ncccn5)cc4)cc23)ccc2c1cnn2CC(C)(C)O [Example 705] on CDK1/CCNB1 (Homo sapiens), pIC50 = < 6.60

---

Reported pIC50 values for a set of compounds
test-system: CDK1/CCNB1 (Homo sapiens, UniProt P06493)
Sequence (P06493 whole entry): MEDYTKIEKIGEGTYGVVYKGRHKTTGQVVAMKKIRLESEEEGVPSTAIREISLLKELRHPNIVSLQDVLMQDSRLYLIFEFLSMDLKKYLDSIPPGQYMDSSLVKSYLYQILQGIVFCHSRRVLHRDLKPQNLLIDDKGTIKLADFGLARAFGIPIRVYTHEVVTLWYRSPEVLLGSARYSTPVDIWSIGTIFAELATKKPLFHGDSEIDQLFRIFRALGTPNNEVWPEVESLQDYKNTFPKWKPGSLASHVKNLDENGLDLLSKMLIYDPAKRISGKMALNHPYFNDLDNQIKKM
Sequence (P14635 whole entry partner): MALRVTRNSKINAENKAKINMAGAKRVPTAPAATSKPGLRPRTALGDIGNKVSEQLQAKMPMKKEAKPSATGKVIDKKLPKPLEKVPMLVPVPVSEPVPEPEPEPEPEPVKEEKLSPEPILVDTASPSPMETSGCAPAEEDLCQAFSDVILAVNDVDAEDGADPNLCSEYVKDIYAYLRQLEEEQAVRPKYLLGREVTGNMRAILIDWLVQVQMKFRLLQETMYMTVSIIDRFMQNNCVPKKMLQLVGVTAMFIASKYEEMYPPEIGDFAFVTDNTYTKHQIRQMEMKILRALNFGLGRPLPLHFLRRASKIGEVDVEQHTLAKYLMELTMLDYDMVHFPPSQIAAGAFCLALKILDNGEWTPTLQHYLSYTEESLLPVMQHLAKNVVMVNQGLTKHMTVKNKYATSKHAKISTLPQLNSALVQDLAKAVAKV
experiment-summary: CDK1 homogeneous time-resolved fluorescence (HTRF) kinase assay
Format: biochemical
experimental-parameters: >250 nM; CDK1/CCNB; read-out: CDK1/CCNB IC50 >250 nM
pIC50: −log10 of the molar value.

Item: Cc1c(-c2nccc3cnc(Nc4ccc(S(=O)(=O)N5CCOCC5)cc4)cc23)ccc2c1cnn2CC(C)(C)O | pIC50: < 6.60

Item: COc1cc(C#Cc2nccc3cnc(Nc4ccc(S(C)(=O)=O)cc4)cc23)ccc1F | pIC50: < 6.60

---

test-system: CDK6/CCND1 (Homo sapiens, UniProt Q00534)
Sequence (Q00534 whole entry): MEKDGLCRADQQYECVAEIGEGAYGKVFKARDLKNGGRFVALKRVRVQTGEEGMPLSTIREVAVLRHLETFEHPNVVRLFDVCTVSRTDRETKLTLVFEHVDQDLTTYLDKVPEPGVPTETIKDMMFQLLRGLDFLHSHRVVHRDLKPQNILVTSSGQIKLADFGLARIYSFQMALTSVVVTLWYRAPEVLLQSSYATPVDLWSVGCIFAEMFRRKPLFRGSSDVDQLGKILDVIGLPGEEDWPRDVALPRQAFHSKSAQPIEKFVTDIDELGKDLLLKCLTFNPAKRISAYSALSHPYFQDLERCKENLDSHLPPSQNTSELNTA
Sequence (P24385 whole entry partner): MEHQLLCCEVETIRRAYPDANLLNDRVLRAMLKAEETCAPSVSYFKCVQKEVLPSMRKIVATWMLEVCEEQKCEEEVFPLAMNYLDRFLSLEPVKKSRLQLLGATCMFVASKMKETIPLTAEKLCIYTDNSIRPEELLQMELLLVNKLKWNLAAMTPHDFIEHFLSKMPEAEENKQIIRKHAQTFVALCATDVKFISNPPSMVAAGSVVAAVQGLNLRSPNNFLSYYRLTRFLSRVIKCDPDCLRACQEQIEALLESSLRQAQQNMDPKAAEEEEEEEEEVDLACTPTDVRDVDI
experiment-summary: CDK6 homogeneous time-resolved fluorescence (HTRF) kinase assay
Format: biochemical
experimental-parameters: CDK6/CCND; x = IC50 >250 nM; read-out: CDK6/CCND IC50 (>250 nM column)
pIC50: −log10 of the molar value.
Reported pIC50 values for a set of compounds

Here are 7 compounds together with their reported answers.
| compound | pIC50 |
| --- | --- |
| CC1(C)C(=O)Nc2cc(C#Cc3nccc4cnc(Nc5ccc(S(C)(=O)=O)cc5Cl)cc34)ccc21 [Ex 423] | < 6.60 |
| COc1ccc(C#Cc2nccc3cnc(Nc4ccc(S(C)(=O)=O)cc4)cc23)cn1 [Ex 646] | < 6.60 |
| CC1(C)C(=O)Nc2cc(C#Cc3nccc4cnc(Nc5ccc(S(C)(=O)=O)cc5)cc34)ccc21 [Ex 486] | < 6.60 |
| CCC1(CC)C(=O)Nc2cc(C#Cc3nccc4cnc(Nc5ccc(S(C)(=O)=O)cc5)cc34)ccc21 [Ex 461] | < 6.60 |
| CS(=O)(=O)c1ccc(Nc2cc3c(C#Cc4c(N)cccc4Cl)nccc3cn2)cc1 [Ex 576] | < 6.60 |
| CC1(C)C(=O)Nc2cc(C#Cc3nccc4cnc(Nc5ccc(S(C)(=O)=O)cc5C(F)(F)F)cc34)ccc21 [Ex 352] | < 6.60 |
| Nc1ncccc1C#Cc1nccc2cnc(Nc3cnc(O)c(N4CCNCC4)c3)cc12 [Example 465] | < 6.60 |

# ---- query compound ----
Item: CC1(C)C(=O)Nc2cc(C#Cc3nccc4cnc(Nc5ccc(S(C)(=O)=O)nc5)cc34)ccc21 [Ex 425] | pIC50: < 6.60

---

test-system: CDK6/CCND1 (Homo sapiens, UniProt Q00534)
experiment-summary: CDK6 homogeneous time-resolved fluorescence (HTRF) kinase assay
Format: biochemical
experimental-parameters: CDK6/CCND; x = IC50 25-250 nM; read-out: CDK6/CCND IC50 (25-250 nM)
Reported IC50 values for a set of molecules

Here are 6 molecules together with their reported answers.
| molecule | test-system | IC50 |
| --- | --- | --- |
| CC(C)(O)CN1CCc2cc(-c3nccc4cnc(Nc5ccc(S(C)(=O)=O)cc5)cc34)ccc2C1 [Example 629] | CDK6/CCND1 (Homo sapiens, UniProt Q00534) | 25 to 250 nM |
| CC1(C)C(=O)Nc2cc(C#Cc3nccc4cnc(Nc5ccc(S(=N)(=O)C6CCC6)cc5)cc34)ccc21 (single isomer, unassigned) [Ex 453] | CDK6/CCND1 (Homo sapiens, UniProt Q00534) | 25 to 250 nM |
| CCS(=N)(=O)c1ccc(Nc2cc3c(C#Cc4ccc5c(c4)NC(=O)C54CC4)nccc3cn2)cc1 (racemic) [Ex 376] | CDK6/CCND1 (Homo sapiens, UniProt Q00534) | 25 to 250 nM |
| Cc1c(-c2nccc3cnc(Nc4ccc(S(C)(=N)=O)cc4)cc23)ccc2nn(C)cc12 (single isomer, unassigned) [Example 545] | CDK6/CCND1 (Homo sapiens, UniProt Q00534) | 25 to 250 nM |
| C[C@@H](C#Cc1nccc2cnc(Nc3ccc(S(C)(=O)=O)cc3)cc12)CO [Example 488] | CDK6/CCND1 (Homo sapiens, UniProt Q00534) | 25 to 250 nM |
| CC1(O)C=C(c2nccc3cnc(Nc4ccc(S(C)(=O)=O)cc4)cc23)CCC1 (single isomer, unassigned) [Example 625] | CDK6/CCND1 (Homo sapiens, UniProt Q00534) | 25 to 250 nM |

# ---- query molecule ----
# lookup: CC1(C)C(=O)Nc2cc(C#Cc3nccc4cnc(Nc5ccc(S(=O)(=O)NC6CCNCC6)cc5)cc34)ccc21 [Ex 442] on CDK6/CCND1 (Homo sapiens, UniProt Q00534), IC50 = 25 to 250 nM

---

Reported IC50 values for a set of molecules
test-system: CDK6/CCND1 (Homo sapiens)
experiment-summary: CDK6 homogeneous time-resolved fluorescence (HTRF) kinase assay
Assay type: biochemical
experimental-parameters: >250 nM; CDK6/CCND; 1 mM ATP; read-out: CDK6/CCND IC50, >250 nM

Here are 3 molecules together with their reported answers.
| molecule | test-system | observed |
| --- | --- | --- |
| COc1ccc(NS(=O)(=O)c2ccc(Nc3cc4c(-c5ccc6c(cnn6CC(O)(C(F)(F)F)C(F)(F)F)c5C)nccc4cn3)cc2)cc1C(C)(C)O [Ex 709] | CDK6/CCND1 (Homo sapiens) | > 250 nM |
| COc1nc(S(C)(=O)=O)ccc1Nc1cc2c(-c3ccc4c(cnn4CC(C)(C)O)c3C)nccc2cn1 [Ex 766] | CDK6/CCND1 (Homo sapiens) | > 250 nM |
| Cc1c(-c2nccc3cnc(Nc4ccc(NS(=O)(=O)c5cccc(N6CCOCC6)c5)cc4)cc23)ccc2c1cnn2CC(C)(C)O [Ex 753] | CDK6/CCND1 (Homo sapiens) | > 250 nM |

Item: Cc1c(-c2nccc3cnc(Nc4ccc(S(=O)(=O)Nc5cccc(C(C)(C)O)c5)cc4)cc23)ccc2c1cnn2CC(O)(C(F)(F)F)C(F)(F)F [Ex 712] | IC50: > 250 nM

---

test-system: CDK2/CCNE1 (Homo sapiens, UniProt P24941)
experiment-summary: CDK2 homogeneous time-resolved fluorescence (HTRF) kinase assay
Assay type: biochemical
experimental-parameters: CDK2/CCNE; x = IC50 <25 nM; read-out: CDK2/CCNE IC50 (<25 nM)
pIC50: −log10 of the molar value.
property-name: pIC50

Here are 4 molecules together with their reported answers.
| molecule | observed |
| --- | --- |
| CS(=N)(=O)c1ccc(Nc2cc3c(C#Cc4ccc5oc(=O)[nH]c5c4)nccc3cn2)cc1 (single isomer, unassigned) [Example 483] | > 7.60 |
| Cc1c(-c2nccc3cnc(Nc4ccc(S(N)(=O)=O)cc4)cc23)ccc2c1cnn2CCO [Ex 673] | > 7.60 |
| CC1(C)C(=O)Nc2cc(C#Cc3nccc4cnc(Nc5ccc(S(C)(=O)=O)cc5)cc34)c(F)cc21 [Example 446] | > 7.60 |
| CS(=O)(=O)c1ccc(Nc2cc3c(-c4ccc5c(cnn5CC(O)(C(F)(F)F)C(F)(F)F)c4Cl)nccc3cn2)cc1 (single isomer, unassigned) [Example 587] | > 7.60 |

Item: Nc1ncccc1C#Cc1nccc2cnc(Nc3ccc(S(=O)(=O)NC4CCNCC4)cc3)cc12 [Ex 433] | pIC50: > 7.60

Item: CN1CCC(NS(=O)(=O)c2ccc(Nc3cc4c(C#Cc5ccc6c(c5)NC(=O)C6(C)C)nccc4cn3)cc2)CC1 [Example 441] | pIC50: > 7.60

Item: CC(CCO)N1CCc2cc(-c3nccc4cnc(Nc5ccc(S(C)(=O)=O)cc5)cc34)ccc2C1 (racemic) [Ex 619] | pIC50: > 7.60

Item: CS(=O)(=O)c1ccc(Nc2cc3c(C#Cc4n[nH]c5cnccc45)nccc3cn2)cc1 [Example 496] | pIC50: > 7.60

Item: CC1(C)C(=O)Nc2cc(C#Cc3nccc4cnc(Nc5ccc(S(C)(=O)=O)c(F)c5)cc34)ccc21 [Ex 422] | pIC50: > 7.60

Item: CS(=O)(=O)c1ccc(Nc2cc3c(C#Cc4ccnc(N)c4Cl)nccc3cn2)cc1 [Ex 580] | pIC50: > 7.60

Item: CS(=O)(=O)c1ccc(Nc2cc3c(C#Cc4ccc(=O)[nH]n4)nccc3cn2)cc1 [Ex 618] | pIC50: > 7.60

Item: CC(=O)NCCn1cc2c(C)c(-c3nccc4cnc(Nc5ccc(S(C)(=O)=O)cc5)cc34)ccc2n1 [Example 630] | pIC50: > 7.60

Item: CS(=O)(=O)c1ccc(Nc2cc3c(C#Cc4cnc5cc[nH]c5c4)nccc3cn2)cc1 [Ex 574] | pIC50: > 7.60

Item: CCC1(C)C(=O)Nc2cc(C#Cc3nccc4cnc(Nc5ccc(S(C)(=O)=O)cc5)cc34)ccc21 (single isomer, unassigned) [Example 388] | pIC50: > 7.60

Item: CCS(=O)(=O)c1ccc(Nc2cc3c(C#Cc4cccnc4N)nccc3cn2)cc1 [Ex 401] | pIC50: > 7.60
